Entry source: paper PMC3358524

Molecular target: HLA-A*6601 (Homo sapiens, UniProt P04439, A114D/A173T/A270S/D185E/E277Q/E87N/F33Y/G231S/I121R/I218V/K168Q/L180W/L300P/L318F/P208A/P217A/Q86R/R138Q/S129P/T187R/T323A/T345S/V358M)
Experiment: Competitive peptide-binding assay, purified HLA-A*6601
pIC50: −log10 of the molar value. Peptide text beside a SMILES is read from it.
assay.metric: pIC50

CC(C)C[C@H](NC(=O)[C@H](C)NC(=O)[C@H](CC(C)C)NC(=O)[C@@H](N)[C@@H](C)O)C(=O)N[C@@H](CCC(=O)O)C(=O)N[C@H](C(=O)N[C@@H](C)C(=O)N[C@@H](CCC(N)=O)C(=O)N[C@@H](CCC(N)=O)C(=O)N[C@@H](CCCCN)C(=O)O)C(C)C [Mouse Ins2 C23-32] (H-TLALEVAQQK-OH) = < 4.30
CC(C)C[C@H](NC(=O)[C@H](C)NC(=O)[C@H](CC(C)C)NC(=O)[C@@H](N)[C@@H](C)O)C(=O)N[C@@H](CCC(=O)O)C(=O)N[C@H](C(=O)N[C@@H](C)C(=O)N[C@@H](CCCNC(=N)N)C(=O)N[C@@H](CCC(N)=O)C(=O)N[C@@H](CCCCN)C(=O)O)C(C)C [Mouse Ins1 C21-30] (H-TLALEVARQK-OH) = < 4.30

Continue with the next compound.
Sample CC[C@H](C)[C@H](NC(=O)[C@H](C)N)C(=O)N[C@@H](CC(N)=O)C(=O)N[C@@H](CO)C(=O)N[C@@H](CCC(=O)O)C(=O)N[C@@H](CCSC)C(=O)N[C@@H](Cc1ccccc1)C(=O)N[C@@H](CC(C)C)C(=O)N[C@@H](CCCNC(=N)N)C(=O)O [Mouse IGRP 272–280] (H-AINSEMFLR-OH) — what was its pIC50?
5.34

====

Peptide text beside a SMILES is read from it.
Here's what we have: IC50 numbers for HLA-A*0301 (Homo sapiens, UniProt P04439).
Give bare numbers, in µM.

CC(C)C[C@H](NC(=O)[C@H](C)NC(=O)[C@H](CC(C)C)NC(=O)[C@@H]1CCCN1)C(=O)N[C@@H](CCC(=O)O)C(=O)NCC(=O)N[C@@H](CO)C(=O)N[C@@H](CC(C)C)C(=O)N[C@@H](CCC(N)=O)C(=O)N[C@@H](CCCCN)C(=O)O [Human Ins C23-32] (H-PLALEGSLQK-OH) = 20.9

Sample CC(C)C[C@H](NC(=O)[C@H](C)NC(=O)[C@@H](N)CC(C)C)C(=O)N[C@@H](CCC(=O)O)C(=O)N[C@H](C(=O)N[C@@H](C)C(=O)N[C@@H](CCCNC(=N)N)C(=O)N[C@@H](CCC(N)=O)C(=O)N[C@@H](CCCCN)C(=O)N[C@@H](CCCNC(=N)N)C(=O)O)C(C)C [Mouse Ins1 C22-31] (H-LALEVARQKR-OH) — what was its IC50?
43.6

====

Molecular target: HLA-A*6601 (Homo sapiens, UniProt P04439, A114D/A173T/A270S/D185E/E277Q/E87N/F33Y/G231S/I121R/I218V/K168Q/L180W/L300P/L318F/P208A/P217A/Q86R/R138Q/S129P/T187R/T323A/T345S/V358M)
Assay: Competitive peptide-binding assay, purified HLA-A*6601
Peptide text beside a SMILES is read from it.
assay.metric: IC50 (nM)
Give bare numbers, in nM.

Sample CC(C)C[C@H](NC(=O)[C@H](C)NC(=O)[C@@H](N)CC(C)C)C(=O)N[C@@H](CCC(=O)O)C(=O)NCC(=O)N[C@@H](CO)C(=O)N[C@@H](CC(C)C)C(=O)N[C@@H](CCC(N)=O)C(=O)N[C@@H](CCCCN)C(=O)N[C@@H](CCCNC(=N)N)C(=O)O [Human Ins C24-33] (H-LALEGSLQKR-OH) — what was its IC50?
515

====

Give measured log10(IC50) for each item. Keep answers brief.
Biological target: HLA-A*3301 (Homo sapiens, UniProt P04439, A270S/D185E/E176V/E277Q/E87N/F33T/G231S/H175R/I121M/I218V/I322F/K168Q/K210R/L300P/L318F/M331R/P217A/Q86R/Q94H/R138Q/T323A/T345S/T97I/V358M/Y195H)
Assay: Competitive peptide-binding assay, purified HLA-A*3301
Peptide text beside a SMILES is read from it.
Transform log10 | Measure IC50 | Unit µM

Some molecules with known log10(IC50) results, for comparison:
CC[C@H](C)[C@H](NC(=O)[C@H](C)N)C(=O)N[C@@H](CC(N)=O)C(=O)N[C@@H](CO)C(=O)N[C@@H](CCC(=O)O)C(=O)N[C@@H](CCSC)C(=O)N[C@@H](Cc1ccccc1)C(=O)N[C@@H](CC(C)C)C(=O)N[C@@H](CCCNC(=N)N)C(=O)O [Mouse IGRP 272–280] (H-AINSEMFLR-OH) = 0.03
CC(C)C[C@H](NC(=O)[C@H](C)NC(=O)[C@@H](N)CC(C)C)C(=O)N[C@@H](CCC(=O)O)C(=O)N[C@H](C(=O)N[C@@H](C)C(=O)N[C@@H](CCCNC(=N)N)C(=O)N[C@@H](CCC(N)=O)C(=O)N[C@@H](CCCCN)C(=O)N[C@@H](CCCNC(=N)N)C(=O)O)C(C)C [Mouse Ins1 C22-31] (H-LALEVARQKR-OH) = 0.96
CC[C@H](C)[C@H](NC(=O)[C@H](C)N)C(=O)N[C@@H](CC(N)=O)C(=O)N[C@@H](CO)C(=O)N[C@@H](CCC(=O)O)C(=O)N[C@@H](CCSC)C(=O)N[C@@H](Cc1ccccc1)C(=O)N[C@@H](CC(C)C)C(=O)N[C@@H](CC(C)C)C(=O)O [Human IGRP 272–280] (H-AINSEMFLL-OH) = 1.11
CC(C)C[C@H](NC(=O)[C@H](C)NC(=O)[C@@H](N)CC(C)C)C(=O)N[C@@H](CCC(=O)O)C(=O)NCC(=O)N[C@@H](CO)C(=O)N[C@@H](CC(C)C)C(=O)N[C@@H](CCC(N)=O)C(=O)N[C@@H](CCCCN)C(=O)N[C@@H](CCCNC(=N)N)C(=O)O [Human Ins C24-33] (H-LALEGSLQKR-OH) = 0.51

Continue with the next molecule.
Sample CC(C)C[C@H](NC(=O)[C@H](C)NC(=O)[C@H](CC(C)C)NC(=O)[C@@H](N)[C@@H](C)O)C(=O)N[C@@H](CCC(=O)O)C(=O)N[C@H](C(=O)N[C@@H](C)C(=O)N[C@@H](CCCNC(=N)N)C(=O)N[C@@H](CCC(N)=O)C(=O)N[C@@H](CCCCN)C(=O)O)C(C)C [Mouse Ins1 C21-30] (H-TLALEVARQK-OH) — what was its log10(IC50)?
1.41

====

Target: HLA-A*1101 (Homo sapiens, UniProt P04439, A114D/D185E/E176A/F33Y/L180Q/S129P/T187R)
Experiment: Competitive peptide-binding assay, purified HLA-A*1101
Peptide text beside a SMILES is read from it.
In plain terms, low IC50, meaning strictly below 3 µM, gives Condition met, and everything else gives Condition not met.

CC(C)C[C@H](NC(=O)[C@H](C)NC(=O)[C@H](CC(C)C)NC(=O)[C@@H]1CCCN1)C(=O)N[C@@H](CCC(=O)O)C(=O)NCC(=O)N[C@@H](CO)C(=O)N[C@@H](CC(C)C)C(=O)N[C@@H](CCC(N)=O)C(=O)N[C@@H](CCCCN)C(=O)O [Human Ins C23-32] (H-PLALEGSLQK-OH) = Condition not met
CC(C)C[C@H](NC(=O)[C@H](C)NC(=O)[C@H](CC(C)C)NC(=O)[C@@H](N)[C@@H](C)O)C(=O)N[C@@H](CCC(=O)O)C(=O)N[C@H](C(=O)N[C@@H](C)C(=O)N[C@@H](CCCNC(=N)N)C(=O)N[C@@H](CCC(N)=O)C(=O)N[C@@H](CCCCN)C(=O)O)C(C)C [Mouse Ins1 C21-30] (H-TLALEVARQK-OH) = Condition not met
CC(C)C[C@H](NC(=O)[C@H](C)NC(=O)[C@H](CC(C)C)NC(=O)[C@@H](N)[C@@H](C)O)C(=O)N[C@@H](CCC(=O)O)C(=O)N[C@H](C(=O)N[C@@H](C)C(=O)N[C@@H](CCC(N)=O)C(=O)N[C@@H](CCC(N)=O)C(=O)N[C@@H](CCCCN)C(=O)O)C(C)C [Mouse Ins2 C23-32] (H-TLALEVAQQK-OH) = Condition met
CC[C@H](C)[C@H](NC(=O)[C@H](C)N)C(=O)N[C@@H](CC(N)=O)C(=O)N[C@@H](CO)C(=O)N[C@@H](CCC(=O)O)C(=O)N[C@@H](CCSC)C(=O)N[C@@H](Cc1ccccc1)C(=O)N[C@@H](CC(C)C)C(=O)N[C@@H](CCCNC(=N)N)C(=O)O [Mouse IGRP 272–280] (H-AINSEMFLR-OH) = Condition met
CC(C)C[C@H](NC(=O)[C@H](C)NC(=O)[C@@H](N)CC(C)C)C(=O)N[C@@H](CCC(=O)O)C(=O)N[C@H](C(=O)N[C@@H](C)C(=O)N[C@@H](CCCNC(=N)N)C(=O)N[C@@H](CCC(N)=O)C(=O)N[C@@H](CCCCN)C(=O)N[C@@H](CCCNC(=N)N)C(=O)O)C(C)C [Mouse Ins1 C22-31] (H-LALEVARQKR-OH) = Condition not met

Does the reported IC50 of CC[C@H](C)[C@H](NC(=O)[C@H](C)N)C(=O)N[C@@H](CC(N)=O)C(=O)N[C@@H](CO)C(=O)N[C@@H](CCC(=O)O)C(=O)N[C@@H](CCSC)C(=O)N[C@@H](Cc1ccccc1)C(=O)N[C@@H](CC(C)C)C(=O)N[C@@H](CC(C)C)C(=O)O [Human IGRP 272–280] (H-AINSEMFLL-OH) stay below 3 µM?
Condition met

Does the reported IC50 of CC(C)C[C@H](NC(=O)[C@H](C)NC(=O)[C@@H](N)CC(C)C)C(=O)N[C@@H](CCC(=O)O)C(=O)NCC(=O)N[C@@H](CO)C(=O)N[C@@H](CC(C)C)C(=O)N[C@@H](CCC(N)=O)C(=O)N[C@@H](CCCCN)C(=O)N[C@@H](CCCNC(=N)N)C(=O)O [Human Ins C24-33] (H-LALEGSLQKR-OH) stay below 3 µM?
Condition not met
